- Tested on: MDA-MB-435
- assay_details: NCI tumour cell line growth inhibition, 48 h
readout_label: TGI

CC[C@@]1(O)C(=O)NCc2c1cc1n(c2=O)Cc2cc3ccccc3nc2-1
> 100 µM
COc1ccc(OC)c(-c2nc3sccn3c2/C=C2/C(=O)Nc3ccc(Cl)cc32)c1
44.9 µM

Here's the next entry for you.
Query: Enter recorded TGI with MDA-MB-435 for Cc1c2c3cc(O)ccc3nc-2n(C)c2ccccc12 here.
Result: 4.62 µM

* * *

- System: UACC-62 melanoma
- assay_details: NCI tumour cell line growth inhibition, 48 h
readout_label: TGI

Past entries and their recorded results:
Cc1c[nH]c2c1C13CC1CN(C(=O)c1cc4cc(NC(=O)c5cc6ccccc6o5)ccc4[nH]1)C3=CC2=O (stereo unspecified)
< 0.001 µM
COc1ccc(-c2oc(=O)ccc2C#Cc2cc(OC)c(OC)c(OC)c2)cc1O
63.5 µM
O=C(c1ccccc1)c1c(C(F)(F)F)n([O-])c2ccccc2[n+]1=O
3.52 µM
CC(NC(=O)/C(=C/c1ccccc1O)NC(=O)c1ccccc1)C(=O)O (stereo unspecified)
> 100 µM
S=c1nc(-c2ccccc2)oc(=NC2CCCCC2)n1C1CCCCC1
21 µM
Cc1cc(C)cc(-n2c3nc(=O)n(C)c(=O)c-3nc3ccccc32)c1
31.5 µM
CNC(=O)CCC(NC(C)=O)C(=O)NC(Cc1ccc(NC(=O)CCCCC(C)=O)cc1)C(=O)NC(CCC(=O)NC)C(=O)NC (stereo unspecified)
> 100 µM
C/C(=N\NC(N)=O)C(CN1CCCCC1)C(c1ccccc1)c1c(O)c2ccccc2oc1=O (stereo unspecified)
> 100 µM
C/C(=C\c1ccc(Cl)cc1)C(C)(C)C(=O)O
> 100 µM
S=c1nc(-c2nc(=S)[nH]c3c2CCCCCCCCCC3)c2c([nH]1)CCCCCCCCCC2
> 100 µM

Query: Specify reported TGI for the compound shown: Oc1ccc2oc3ncc(Cl)c(-c4ccccc4)c3c2c1
Result: > 100 µM

Query: Specify reported TGI for the compound shown: O=C(N/N=C(/c1nc2ccc(Cl)cc2[nH]c1=O)C(O)c1ccc(Cl)cc1Cl)c1ccncc1 (stereo unspecified)
Result: > 100 µM

Query: Specify reported TGI for the compound shown: COc1ccc(-c2ccc3c(NC(=O)C4CC4)n[nH]c3n2)cc1
Result: > 25 µM

Query: Specify reported TGI for the compound shown: Cn1c(=O)c2c(-c3ccccc3)onc2n(C)c1=O
Result: > 100 µM

Query: Specify reported TGI for the compound shown: O=C1c2[nH]cc(CN3CCNCC3)c2C(=O)c2c1c(O)c1ccccc1c2O
Result: 3.28 µM

Query: Specify reported TGI for the compound shown: COc1ccc(C2(c3ccc(OC)cc3)OC(=O)c3cccc4cccc2c34)cc1
Result: > 100 µM

Query: Specify reported TGI for the compound shown: COc1ccc(C2OC(=O)c3c2ccc2ccccc32)c(C)c1 (stereo unspecified)
Result: 90.5 µM

Query: Specify reported TGI for the compound shown: O=C1c2ccccc2C(=O)c2c1ccc(C(Br)Br)c2[N+](=O)[O-]
Result: 3.1 µM

* * *

- Test system: A549 NSCLC
- assay_details: NCI tumour cell line growth inhibition, 48 h
readout_label: TGI

Past entries and their recorded results:
CC1(C)CCC[C@]23C(=O)O[C@](O)(C(=O)C4=C[C@@](C)(/C=C/CCCc5ccc6ccc7cccc8ccc5c6c78)CC[C@@]42O)[C@@H]13
0.678 µM
C=C(C=O)C1CC(=O)C(C(=O)OC)[C@@H]2O[C@@](C)(CC2=O)C[C@@H]2OC(=O)[C@]3(O[C@@H]23)[C@@H](C(=O)OC)C1 (stereo not given in full)
67.1 µM
CC1=NNC(=NCCN(C)C)C/C1=C/c1ccccc1Cl
> 100 µM
CC(=O)NC1C(CO)O[C@@H]2OC(C)(C)O[C@H]12 (stereo not given in full)
> 100 µM
O=C(c1ccc2ccccc2c1)C1S(=O)(=O)OCCOS1(=O)=O
> 100 µM

Query: Specify reported TGI for the compound shown: N#Cc1c(NC(=O)c2ccccc2)sc2c1CCC(=O)C2
Result: > 100 µM

Query: Specify reported TGI for the compound shown: Cc1cc(C)cc(-n2c3nc(=O)n(C)c(=O)c-3nc3ccccc32)c1
Result: 70.6 µM

Query: Specify reported TGI for the compound shown: COC(=O)c1c[nH]c(=O)[nH]c1=O
Result: > 100 µM

Query: Specify reported TGI for the compound shown: Cc1cccc(C(C)(C)C)c1NC(=O)/C(Cc1nc2ccc([N+](=O)[O-])cc2[nH]c1=O)=N/NC(=O)C[N+](C)(C)C
Result: > 100 µM

Query: Specify reported TGI for the compound shown: CC(C)[C@@H]1C=C(c2ccccc2)c2ccccc2C1C(C#N)(C#N)C(C)C (stereo not given in full)
Result: > 100 µM

Every entry's value here was drawn from PubChem BioAssay (NCI).
